- Tested on: 435261-313-R-J1-PDC complex spheroid viability
- procedure_details: Anticancer human tumor 435261-313-R-J1-PDC patient-derived colon adenocarcinoma cell line growth inhibition [GQUAD]
- test_conditions: second compound 0.0316 µM; first compound 3.16 µM; active compounds read low
measured_metric: viability, T/C (%)
Answers are plain numbers, in %.

>  <molecule>
C=CC(=O)N1CCN(c2nc(=O)n(-c3c(C)ccnc3C(C)C)c3nc(-c4c(O)cccc4F)c(F)cc23)C(C)C1 (configuration not stated) + Cc1[nH]c2ccc(F)cc2c1-c1nc2c3cccnc3c3ncccc3c2[nH]1

>  <target_desc>
435261-313-R-J1-PDC complex spheroid viability

>  <readout_unit>
%

>  <viability, T/C>
127

$$$$

Attention now shifts to the item below.
(Q) # return viability, T/C of CC(=O)O[C@H]1C(=O)[C@@]2(C)[C@H]([C@H](OC(=O)c3ccccc3)[C@]3(O)C[C@H](OC(=O)[C@H](O)[C@@H](NC(=O)c4ccccc4)c4ccccc4)C(C)=C1C3(C)C)[C@]1(OC(C)=O)CO[C@@H]1C[C@@H]2O + Cc1[nH]c2ccc(F)cc2c1-c1nc2c3cccnc3c3ncccc3c2[nH]1 (system: 435261-313-R-J1-PDC complex spheroid viability)
(A) 63.8

---

- Test system: 435261-313-R-J1-PDC complex spheroid viability
- procedure_details: Anticancer human tumor 435261-313-R-J1-PDC cell line growth inhibition [GQUAD];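 note: spheroids exposed to the agents for seven days before readout; percent of vehicle control viability with DMSO wells as 100%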
- test_conditions: second compound 0.0316 µM; first compound 0.316 µM; active compounds read low
measured_metric: viability, T/C (%)
One number for each entry, in %.

Answered cases to consult:
>  <compound>
CCCS(=O)(=O)Nc1ccc(F)c(C(=O)c2c[nH]c3ncc(-c4ccc(Cl)cc4)cc23)c1F + CN(C)c1ccc(Nc2c3ccc(NC(=O)CCN4CCCC4)cc3nc3cc(NC(=O)CCN4CCCC4)ccc23)cc1

>  <target_desc>
435261-313-R-J1-PDC complex spheroid viability

>  <observed>
143

$$$$
>  <compound>
CC1COCCN1c1cc(C2(S(C)(=N)=O)CC2)nc(-c2ccnc3[nH]ccc23)n1 (stereo not given) + CN(C)c1ccc(Nc2c3ccc(NC(=O)CCN4CCCC4)cc3nc3cc(NC(=O)CCN4CCCC4)ccc23)cc1

>  <target_desc>
435261-313-R-J1-PDC complex spheroid viability

>  <observed>
71.8

$$$$
>  <compound>
C=CCn1c(=O)c2cnc(Nc3ccc(N4CCN(C)CC4)cc3)nc2n1-c1cccc(C(C)(C)O)n1 + Cc1cnc(CNC(=O)c2c(=O)c3ccc(N4CCCN(C)CC4)nc3n3c2sc2ccccc23)cn1

>  <target_desc>
435261-313-R-J1-PDC complex spheroid viability

>  <observed>
59.4

$$$$
>  <compound>
CC1COCCN1c1cc(-c2ccnn2C)c2ccnc(-c3ccn[nH]3)c2n1 (stereo not given) + Cc1cnc(CNC(=O)c2c(=O)c3ccc(N4CCCN(C)CC4)nc3n3c2sc2ccccc23)cn1

>  <target_desc>
435261-313-R-J1-PDC complex spheroid viability

>  <observed>
54.7

$$$$

(Q) Respond only with viability, T/C recorded for CC(=O)O[C@H]1C(=O)[C@@]2(C)[C@H]([C@H](OC(=O)c3ccccc3)[C@]3(O)C[C@H](OC(=O)[C@H](O)[C@@H](NC(=O)c4ccccc4)c4ccccc4)C(C)=C1C3(C)C)[C@]1(OC(C)=O)CO[C@@H]1C[C@@H]2O + Cc1[nH]c2ccc(F)cc2c1-c1nc2c3cccnc3c3ncccc3c2[nH]1
(A) 74.7

---

- Test system: 435261-313-R-J1-PDC complex spheroid viability
- procedure_details: Anticancer human tumor 435261-313-R-J1-PDC cell line growth inhibition [GQUAD];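 note: spheroids exposed to the agents for seven days before readout; percent of vehicle control viability with DMSO wells as 100%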
- test_conditions: second compound 0.0316 µM; first compound 0.1 µM; active compounds read low
Quick rule for you: viability, T/C under 80% gets Condition met, anything else gets Condition not met.

>  <molecule>
Cc1cccc(N(C)C(=O)C2C(O)CCN2c2nc(C)cc(C(F)(F)F)c2C#N)c1 (stereo not given) + Cc1[nH]c2ccc(F)cc2c1-c1nc2c3cccnc3c3ncccc3c2[nH]1

>  <target_desc>
435261-313-R-J1-PDC complex spheroid viability

>  <answer_label>
Condition not met

$$$$
>  <molecule>
CC(=O)O[C@H]1C(=O)[C@@]2(C)[C@H]([C@H](OC(=O)c3ccccc3)[C@]3(O)C[C@H](OC(=O)[C@H](O)[C@@H](NC(=O)c4ccccc4)c4ccccc4)C(C)=C1C3(C)C)[C@]1(OC(C)=O)CO[C@@H]1C[C@@H]2O + Cc1cnc(CNC(=O)c2c(=O)c3ccc(N4CCCN(C)CC4)nc3n3c2sc2ccccc23)cn1

>  <target_desc>
435261-313-R-J1-PDC complex spheroid viability

>  <answer_label>
Condition met

$$$$
>  <molecule>
CCCS(=O)(=O)Nc1ccc(F)c(C(=O)c2c[nH]c3ncc(-c4ccc(Cl)cc4)cc23)c1F + Cc1[nH]c2ccc(F)cc2c1-c1nc2c3cccnc3c3ncccc3c2[nH]1

>  <target_desc>
435261-313-R-J1-PDC complex spheroid viability

>  <answer_label>
Condition not met

$$$$
>  <molecule>
CC1COCCN1c1cc(-c2ccnn2C)c2ccnc(-c3ccn[nH]3)c2n1 (stereo not given) + CN(C)c1ccc(Nc2c3ccc(NC(=O)CCN4CCCC4)cc3nc3cc(NC(=O)CCN4CCCC4)ccc23)cc1

>  <target_desc>
435261-313-R-J1-PDC complex spheroid viability

>  <answer_label>
Condition met

$$$$
>  <molecule>
COc1ccc([C@@H](O)c2cc(-c3ncnc4cc(N5CCOCC5)ccc34)c(F)cc2Cl)nn1 + Cc1cnc(CNC(=O)c2c(=O)c3ccc(N4CCCN(C)CC4)nc3n3c2sc2ccccc23)cn1

>  <target_desc>
435261-313-R-J1-PDC complex spheroid viability

>  <answer_label>
Condition met

$$$$

(Q) A record lists O=c1[nH]cc(F)c(=O)[nH]1 + Cc1cnc(CNC(=O)c2c(=O)c3ccc(N4CCCN(C)CC4)nc3n3c2sc2ccccc23)cn1 . Is its viability, T/C below 80%?
(A) Condition met

(Q) Please determine if O=c1[nH]cc(F)c(=O)[nH]1 + CN(C)c1ccc(Nc2c3ccc(NC(=O)CCN4CCCC4)cc3nc3cc(NC(=O)CCN4CCCC4)ccc23)cc1 is below 80% in terms of viability, T/C.
(A) Condition not met

(Q) Regarding O=C(c1cc(Cc2n[nH]c(=O)c3ccccc23)ccc1F)N1CCN(C(=O)C2CC2)CC1 + CN(C)c1ccc(Nc2c3ccc(NC(=O)CCN4CCCC4)cc3nc3cc(NC(=O)CCN4CCCC4)ccc23)cc1 , kindly confirm whether its viability, T/C is beneath 80%.
(A) Condition not met

---

- Tested on: 435261-313-R-J1-PDC complex spheroid viability
- procedure_details: Anticancer human tumor 435261-313-R-J1-PDC cell line growth inhibition [GQUAD];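 note: spheroids exposed to the agents for seven days before readout; percent of vehicle control viability with DMSO wells as 100%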
- test_conditions: second compound 10 µM; first compound 0.316 µM; active compounds read low
measured_metric: viability, T/C (%)
Numbers only, in %.

As a guide, the following entries are already answered.
>  <compound>
C=CC(=O)N1CCN(c2nc(=O)n(-c3c(C)ccnc3C(C)C)c3nc(-c4c(O)cccc4F)c(F)cc23)C(C)C1 (stereo not given) + CN(C)c1ccc(Nc2c3ccc(NC(=O)CCN4CCCC4)cc3nc3cc(NC(=O)CCN4CCCC4)ccc23)cc1

>  <measured_metric>
viability, T/C

>  <observed>
54

$$$$
>  <compound>
CC1COCCN1c1cc(C2(O)CC3CCC(C2)O3)c2cnn(-c3ccn[nH]3)c2n1 (stereo not given) + Cc1cnc(CNC(=O)c2c(=O)c3ccc(N4CCCN(C)CC4)nc3n3c2sc2ccccc23)cn1

>  <measured_metric>
viability, T/C

>  <observed>
0.17

$$$$
>  <compound>
CC1COCCN1c1cc(C2(O)CC3CCC(C2)O3)c2cnn(-c3ccn[nH]3)c2n1 (stereo not given) + CN(C)c1ccc(Nc2c3ccc(NC(=O)CCN4CCCC4)cc3nc3cc(NC(=O)CCN4CCCC4)ccc23)cc1

>  <measured_metric>
viability, T/C

>  <observed>
17

$$$$
>  <compound>
C=CCn1c(=O)c2cnc(Nc3ccc(N4CCN(C)CC4)cc3)nc2n1-c1cccc(C(C)(C)O)n1 + CN(C)c1ccc(Nc2c3ccc(NC(=O)CCN4CCCC4)cc3nc3cc(NC(=O)CCN4CCCC4)ccc23)cc1

>  <measured_metric>
viability, T/C

>  <observed>
44.8

$$$$

Then there is this compound:
(Q) Give the reported viability, T/C for this compound. C#Cc1c(F)ccc2cc(O)cc(-c3ncc4c(N5CC6CCC(C5)N6)nc(OCC56CCCN5CC(F)C6)nc4c3F)c12 (stereo not given) + Cc1cnc(CNC(=O)c2c(=O)c3ccc(N4CCCN(C)CC4)nc3n3c2sc2ccccc23)cn1
(A) 0.16

---

- Test system: 435261-313-R-J1-PDC complex spheroid viability
- procedure_details: Anticancer human tumor 435261-313-R-J1-PDC cell line growth inhibition [GQUAD];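 note: spheroids exposed to the agents for seven days before readout; percent of vehicle control viability with DMSO wells as 100%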
- test_conditions: second compound 0.1 µM; first compound 10 µM; active compounds read low
- Source text: DNA G-quadruplex Stabilizer Agents in Combinations in Complex Spheroids A high-throughput screen of multi-cell type tumor spheroids was designed to identify active combinations of DNA G-quadruplex stabilizer agents and targeted small molecules. […] Compounds. […] If the clinical Cmax for an agent had not been determined, the highest concentration tested was 10 microM. […]
measured_metric: viability, T/C (%)
Answers are plain numbers, in %.

Examples with their reported viability, T/C follow.
>  <compound>
COc1ccc([C@@H](O)c2cc(-c3ncnc4cc(N5CCOCC5)ccc34)c(F)cc2Cl)nn1 + CN(C)c1ccc(Nc2c3ccc(NC(=O)CCN4CCCC4)cc3nc3cc(NC(=O)CCN4CCCC4)ccc23)cc1

>  <viability, T/C, %>
35.5

$$$$
>  <compound>
CC1COCCN1c1cc(-c2ccnn2C)c2ccnc(-c3ccn[nH]3)c2n1 (stereo not drawn) + CN(C)c1ccc(Nc2c3ccc(NC(=O)CCN4CCCC4)cc3nc3cc(NC(=O)CCN4CCCC4)ccc23)cc1

>  <viability, T/C, %>
23.1

$$$$

(Q) Read off the recorded viability, T/C for COc1cc(C2c3cc4c(cc3C(OC3OC5COC(C)OC5C(O)C3O)C3COC(=O)C23)OCO4)cc(OC)c1O (stereo not drawn) + CN(C)c1ccc(Nc2c3ccc(NC(=O)CCN4CCCC4)cc3nc3cc(NC(=O)CCN4CCCC4)ccc23)cc1
(A) 74.1
